Reported Ratio EC50 is given for each of the following compounds.
species on record: Homo sapiens; assay: Selectivity ratio of EC50 for human V1a receptor to EC50 for human OTR
Bridge positions count the residues as written; N and C are the ends. Square brackets hold non-standard residues; d marks the D form. Peptide text beside a SMILES is read from it. Mpa = O=C(O)CCS

# count of solved cases: 3
Input: Let me know recorded Ratio EC50 for CC[C@H](C)[C@@H]1NC(=O)[C@H](Cc2ccc(O)cc2)NC(=O)CCSSC[C@@H](C(=O)N2C[C@H](O)C[C@H]2C(=O)N[C@@H](CC(C)C)C(=O)NCC(N)=O)NC(=O)[C@H](CC(N)=O)NC(=O)[C@H](CCC(N)=O)NC1=O , thanks.
Output: > 10000

Input: Report measured Ratio EC50; entry is CC[C@H](C)[C@@H]1NC(=O)[C@H](Cc2ccc(O)cc2)NC(=O)CCSSC[C@@H](C(=O)N2CCCCC2C(=O)N[C@@H](CC(C)C)C(=O)NCC(N)=O)NC(=O)[C@H](CC(N)=O)NC(=O)[C@H](CCC(N)=O)NC1=O (stereo partly drawn)
Output: > 1000

Input: Quickly give me recorded Ratio EC50 for CC[C@H](C)[C@@H]1NC(=O)[C@H](Cc2ccc(O)cc2)NC(=O)CCSSC[C@@H](C(=O)N[C@@H](CCCNC(=N)N)C(=O)N[C@@H](CC(C)C)C(=O)NCC(N)=O)NC(=O)[C@H](CC(N)=O)NC(=O)[C@H](CCC(N)=O)NC1=O ([Mpa]YIQNCRLG-NH2; disulfide 1-6)
Output: > 10

---
Input: # return recorded Ratio EC50 for input CC[C@H](C)[C@@H]1NC(=O)[C@H](Cc2ccc(O)cc2)NC(=O)CCSSC[C@@H](C(=O)N2CCC[C@H]2C(=O)N[C@@H](CC(C)C)C(=O)NCC(N)=O)NC(=O)[C@H](CC(N)=O)NC(=O)[C@H](CCC(=O)O)NC1=O ([Mpa]YIENCPLG-NH2; disulfide 1-6)
Output: > 10

Input: Identify measured Ratio EC50 associated with CC[C@H](C)[C@@H]1NC(=O)[C@H](Cc2ccc(O)cc2)NC(=O)CCSSC[C@@H](C(=O)N2CCC[C@H]2C(=O)N[C@@H](CC(C)C)C(=O)NCC(N)=O)NC(=O)[C@H](CC(N)=O)NC(=O)[C@H](C)NC1=O ([Mpa]YIANCPLG-NH2; disulfide 1-6)
Output: > 100

Input: Consider the compound CC[C@H](C)[C@@H]1NC(=O)[C@H](Cc2ccc(O)cc2)NC(=O)CCSSC[C@@H](C(=O)N2CCC[C@H]2C(=O)N[C@@H](CC(C)C)C(=O)NCC(N)=O)NC(=O)[C@H](CC(N)=O)NC(=O)[C@H](Cc2ccccc2)NC1=O ([Mpa]YIFNCPLG-NH2; disulfide 1-6) . State its measured Ratio EC50.
Output: > 4

Input: Output measured Ratio EC50 for this item: CC[C@H](C)[C@@H]1NC(=O)[C@H](Cc2ccc(O)cc2)NC(=O)CCSSC[C@@H](C(=O)N2CCC[C@H]2C(=O)N[C@@H](CC(C)C)C(=O)N(C)CC(N)=O)NC(=O)[C@H](CC(N)=O)NC(=O)[C@H](CCC(N)=O)NC1=O
Output: > 100

Input: Quickly give me recorded Ratio EC50 for CC[C@H](C)[C@@H]1NC(=O)[C@H](Cc2ccc(O)cc2)NC(=O)CCSSC[C@@H](C(=O)N2CCC[C@H]2C(=O)N[C@@H](Cc2ccccc2)C(=O)NCC(N)=O)NC(=O)[C@H](CC(N)=O)NC(=O)[C@H](CCC(N)=O)NC1=O ([Mpa]YIQNCPFG-NH2; disulfide 1-6)
Output: > 1000
